target: 5-hydroxytryptamine receptor 7 (Homo sapiens, UniProt P34969); test: Binding affinity towards cloned human 5-hydroxytryptamine 7 receptor was determined in HEK293 cells using [3H]5-CT as radioligand; assay type: cell-based
Sequence (P34969 whole entry): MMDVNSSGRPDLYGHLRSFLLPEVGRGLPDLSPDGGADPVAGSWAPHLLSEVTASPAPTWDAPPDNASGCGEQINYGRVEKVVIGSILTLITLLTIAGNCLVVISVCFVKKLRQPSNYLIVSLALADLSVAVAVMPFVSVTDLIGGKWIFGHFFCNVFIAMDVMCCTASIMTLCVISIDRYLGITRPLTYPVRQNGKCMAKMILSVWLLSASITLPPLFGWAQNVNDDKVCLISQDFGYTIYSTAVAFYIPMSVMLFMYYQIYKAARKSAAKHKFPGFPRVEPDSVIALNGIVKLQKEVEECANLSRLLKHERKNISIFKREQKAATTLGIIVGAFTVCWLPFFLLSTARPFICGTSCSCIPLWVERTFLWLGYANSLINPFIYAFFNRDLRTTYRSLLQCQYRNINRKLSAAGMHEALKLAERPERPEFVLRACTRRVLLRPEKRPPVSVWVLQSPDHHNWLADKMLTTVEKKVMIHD
Experimental Readout: Ki (nM)

>  <Molecule Smiles>
CC1CCN(CC[C@@H]2CCCN2S(=O)(=O)c2cccc(Br)c2)CC1

>  <Experimental Readout>
Ki

>  <Result Units>
nM

>  <Measured Result>
2

$$$$
>  <Molecule Smiles>
C[C@H]1CCCN(CC[C@@H](C)N(C)S(=O)(=O)c2cccc3ccccc23)C1

>  <Experimental Readout>
Ki

>  <Result Units>
nM

>  <Measured Result>
631

$$$$
>  <Molecule Smiles>
CC1CCN(CC[C@@H]2CCCN2S(=O)(=O)c2ccc(Cl)c(Cl)c2)CC1

>  <Experimental Readout>
Ki

>  <Result Units>
nM

>  <Measured Result>
3.98

$$$$
>  <Molecule Smiles>
C[C@H]1CCCN(CC[C@H](C)N(C)S(=O)(=O)c2cccc3ccccc23)C1

>  <Experimental Readout>
Ki

>  <Result Units>
nM

>  <Measured Result>
100000

$$$$
>  <Molecule Smiles>
CC1CCN(CC[C@@H](C)N(C)S(=O)(=O)c2cccc3ccccc23)CC1

>  <Experimental Readout>
Ki

>  <Result Units>
nM

>  <Measured Result>
31.6

$$$$
>  <Molecule Smiles>
COc1cccc(S(=O)(=O)N2CCC[C@H]2CCN2CCC(C)CC2)c1

>  <Experimental Readout>
Ki

>  <Result Units>
nM

>  <Measured Result>
10

$$$$
>  <Molecule Smiles>
CC1CCN(CC[C@@H]2CCCN2S(=O)(=O)c2cccc3ccccc23)CC1

>  <Experimental Readout>
Ki

>  <Result Units>
nM

>  <Measured Result>
10

$$$$
>  <Molecule Smiles>
CC1CCN(CC[C@@H]2CCCCN2S(=O)(=O)c2cccc3ccccc23)CC1

>  <Experimental Readout>
Ki

>  <Result Units>
nM

>  <Measured Result>
15.8

$$$$
>  <Molecule Smiles>
C[C@@H]1CCCN(CC[C@H](C)N(C)S(=O)(=O)c2cccc3ccccc23)C1

>  <Experimental Readout>
Ki

>  <Result Units>
nM

>  <Measured Result>
1580

$$$$
